Tested on: Calf thymus DNA
Assay: Binding affinity to calf thymus DNA
Type: nucleic-acid assay
Conditions: Bos taurus
property_label: K (×10⁵ /M)

[a] O=C(O)C1=C2C(=NC1=O)c1cccc3c(N4CCSCC4)ccc2c13
[b] CN(C)CCCNc1ccc2c3c(cccc13)C1=NC(=O)C(C(=O)O)=C12
**Q:** Lab notebook, comparison: a versus b , higher K goes to which? Let me know the label of the one you choose.
**A:** b
(b: 6.01 ×10⁵ /M, a: 2.69 ×10⁵ /M)

* * *

Tested on: Calf thymus DNA
Assay: Binding affinity to calf thymus DNA
Assay type: nucleic-acid assay
Conditions: Bos taurus
property_label: K (×10⁵ /M)

Here is how some molecules turned out for K.
>>> observed_result("O=C(O)C1=C2C(=NC1=O)c1cccc3c(N4CCOCC4)ccc2c13")
2.34
>>> observed_result("CN1CCN(c2ccc3c4c(cccc24)C2=NC(=O)C(C(=O)O)=C23)CC1")
6.13
>>> observed_result("CN(C)CCNc1ccc2c3c(cccc13)C1=NC(=O)C(C(=O)O)=C12")
5.96

[I] CCN(CC)CCNc1ccc2c3c(cccc13)C1=NC(=O)C(C(=O)O)=C12
[II] O=C(O)C1=C2C(=NC1=O)c1cccc3c(N4CCCCC4)ccc2c13
**Q:** Lab notebook, comparison: I versus II , higher K goes to which? Let me know the label of the one you choose.
**A:** I
(I: 5.48 ×10⁵ /M, II: 2.91 ×10⁵ /M)
